// reported pIC50 for each item listed
# Target Or System: T1, Recombinant Human PD-L1-TVMV-His (human, UniProt Q9NZQ7 19-239)
# T1 construct: expressed in HEK293T cells; also called PD-L1-His; hPD-L1(19-239)-TVMV-His
# T1 sequence (Q9NZQ7 other isoform, or with tags, fused parts or gaps limits assumed): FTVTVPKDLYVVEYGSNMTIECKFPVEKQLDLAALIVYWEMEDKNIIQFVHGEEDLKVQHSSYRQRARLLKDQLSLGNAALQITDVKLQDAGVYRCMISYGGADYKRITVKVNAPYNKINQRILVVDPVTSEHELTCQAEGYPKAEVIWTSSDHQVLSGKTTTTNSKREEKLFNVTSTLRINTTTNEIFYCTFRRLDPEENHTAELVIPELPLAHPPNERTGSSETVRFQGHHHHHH
# Assay Text: HTRF vs PD-1-Ig; C = IC50 0.0003-0.0099 µM
pIC50: −log10 of the molar value. Positions of bridges follow the written chain, without caps; N, C: chain ends. Non-standard residues stand in square brackets, D forms with d. No end group written: not given here. Phe(3,4,5-F3) = N[C@@H](Cc1cc(F)c(F)c(F)c1)C(=O)O; Aha = [N-]=[N+]=NCC[C@H](N)C(=O)O; Hyp = O=C(O)[C@@H]1C[C@@H](O)CN1; NMeF = CN[C@@H](Cc1ccccc1)C(=O)O; NMeE = CN[C@@H](CCC(=O)O)C(=O)O; NMeNle = CCCC[C@H](NC)C(=O)O; Bzt = benzothienylalanine; NMeA = CN[C@@H](C)C(=O)O; Pra = C#CC[C@H](N)C(=O)O; Dap = NC[C@H](N)C(=O)O

// worked examples, pIC50 included
1) {CH2CO}-Y[NMeA]NP[Dap]L[Hyp]WS[Bzt][NMeNle][NMeNle]RCGG[Aha] (thioether N-14) [INT-1300C] : 8.00 to 9.52
2) {CH2CO}-[Phe(3,4,5-F3)][NMeF][NMeNle]PDV[NMeF]Y[NMeE]WYLCGGGK-NH2 (thioether N-13; not fully specified (residue 4); printed as ClAc-Phe(3,4,5-tri-F)-[N-Me]Phe-[N-Me]Nle-cis-(D)-Pro(4-OH)-Asp-Val-[N-Me]Phe-Tyr-[N-Me]Glu-Trp-Tyr-Leu-Cys-Gly-Gly-Gly-Lys, order read from the list of couplings, which runs from C- to N-terminus) [Example 3214] : 8.00 to 9.52

Proceed to the following item.
Prompt line: Item {CH2CO}-Y[NMeA]NP[Dap]L[Hyp]WS[Bzt][NMeNle][NMeNle]RCG[Pra] (thioether N-14) [INT-1300A] has what recorded pIC50?
Response line: 8.00 to 9.52
